Data origin: patent US20130289100

# system: GluA2Qflip AMPA receptor subunit (Rattus norvegicus, UniProt P19491-2 P19491-2:22-883)
# Sequence (P19491 other isoform, or with tags, fused parts or gaps): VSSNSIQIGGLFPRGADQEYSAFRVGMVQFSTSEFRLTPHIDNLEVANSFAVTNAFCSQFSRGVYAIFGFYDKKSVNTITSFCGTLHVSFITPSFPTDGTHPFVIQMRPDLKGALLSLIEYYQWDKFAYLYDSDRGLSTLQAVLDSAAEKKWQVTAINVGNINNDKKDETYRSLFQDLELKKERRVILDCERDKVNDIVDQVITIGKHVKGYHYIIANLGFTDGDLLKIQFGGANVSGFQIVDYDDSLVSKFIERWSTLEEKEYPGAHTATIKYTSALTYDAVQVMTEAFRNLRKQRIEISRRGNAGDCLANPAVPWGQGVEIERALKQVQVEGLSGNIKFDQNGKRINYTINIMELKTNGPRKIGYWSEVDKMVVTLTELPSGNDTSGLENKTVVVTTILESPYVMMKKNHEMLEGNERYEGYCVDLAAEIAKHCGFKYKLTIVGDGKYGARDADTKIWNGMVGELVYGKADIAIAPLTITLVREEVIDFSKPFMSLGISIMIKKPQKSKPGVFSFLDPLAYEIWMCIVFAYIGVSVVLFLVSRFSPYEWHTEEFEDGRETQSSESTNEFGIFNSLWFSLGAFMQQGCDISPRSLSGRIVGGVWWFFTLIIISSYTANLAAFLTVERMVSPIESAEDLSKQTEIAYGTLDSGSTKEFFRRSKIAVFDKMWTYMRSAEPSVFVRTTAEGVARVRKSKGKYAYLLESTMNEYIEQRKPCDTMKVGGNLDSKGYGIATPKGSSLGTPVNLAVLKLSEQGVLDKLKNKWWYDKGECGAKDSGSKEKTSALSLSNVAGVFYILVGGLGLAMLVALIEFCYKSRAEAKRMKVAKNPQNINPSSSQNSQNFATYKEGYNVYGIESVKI
# experiment-summary: competition; unliganded closed-channel conformation; homologous competition with radiolabeled AF44
# test-context: chain copies: 4 (inferred)
outcome-measure: Kd (nM)
The response must be a number in nM with no trailing unit.

[Q] // lookup Kd for GGGAGAAUUCAACUGCCACGGAUAAUAGCCAAUACUACAACCGU (ssRNA) [AF44 (A22)]
[A] 44
